The reported measurements were obtained from patent US20220289753A1.

Quick reference: IC50 of the listed items.
- SYSTEM UNDER TEST: SHP-2 enzyme (Met1-Leu525) (Homo sapiens)
- Construct: synthetized by Origene, Met1-Leu525, cat #TP750155; purchased Origene TP750155
- Sequence (Q06124 1-525): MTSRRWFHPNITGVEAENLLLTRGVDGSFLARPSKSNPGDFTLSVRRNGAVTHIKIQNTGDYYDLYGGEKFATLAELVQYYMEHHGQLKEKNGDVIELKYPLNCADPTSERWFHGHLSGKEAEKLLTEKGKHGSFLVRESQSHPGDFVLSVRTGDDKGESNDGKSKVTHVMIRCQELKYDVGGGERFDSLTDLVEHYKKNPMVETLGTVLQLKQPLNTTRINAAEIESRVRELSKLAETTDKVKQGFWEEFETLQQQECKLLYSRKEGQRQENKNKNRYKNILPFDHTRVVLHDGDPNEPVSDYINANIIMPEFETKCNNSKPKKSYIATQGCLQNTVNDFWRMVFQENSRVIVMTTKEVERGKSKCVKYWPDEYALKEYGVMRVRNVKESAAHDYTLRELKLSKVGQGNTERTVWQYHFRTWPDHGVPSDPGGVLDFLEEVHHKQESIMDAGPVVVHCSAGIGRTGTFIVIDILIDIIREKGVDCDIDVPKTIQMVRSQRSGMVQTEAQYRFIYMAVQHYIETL
- PROTOCOL DETAILS: SHP2 inhibition enzymatic assay (DiFMUP substrate, IRS1 peptide activation)
- Type: biochemical
- ASSAY CONTEXT: SHP2 wt; activated by 500 nM IRS1 peptide; 75 μM DiFMUP substrate

Sample records with IC50:
# CHEM SMILES, IC50
rows = [
    ("CC1(N)CCN(c2nc3nc(Sc4cccc5ccncc45)cnc3[nH]2)CC1", "< 500 nM"),
    ("CC1(N)CCN(c2nc3nc(Nc4cccc(Cl)c4Cl)cnc3[nH]2)CC1", "> 3000 nM"),
    ("N#Cc1ccc2c(c1)[C@@H](N)C1(CCN(c3nc4nc(Sc5ccnc(N)c5Cl)cnc4[nH]3)CC1)C2", "< 500 nM"),
    ("OCCN1CCCN(c2nc3nc(Sc4cccnc4C(F)(F)F)cnc3[nH]2)CC1", "500 to 3000 nM"),
]

# `CC1(N)CCN(c2nc3nc(Sc4ccc(F)cc4F)cnc3[nH]2)CC1` with SHP-2 enzyme (Met1-Leu525) (Homo sapiens): IC50 is < 500 nM

# `N[C@@H]1c2ccccc2CC12CCN(c1nc3nc(Sc4cccc(Cl)c4Cl)c(Cl)nc3[nH]1)CC2` with SHP-2 enzyme (Met1-Leu525) (Homo sapiens): IC50 is < 500 nM

# `Cn1cc2c(Sc3cnc4[nH]c(N5CCC6(CC5)Cc5ccccc5[C@H]6N)nc4n3)ccnc2n1` with SHP-2 enzyme (Met1-Leu525) (Homo sapiens): IC50 is < 500 nM

# `CC1(N)CCN(c2nc3nc(Sc4cccc5[nH]cnc45)cnc3[nH]2)CC1` with SHP-2 enzyme (Met1-Leu525) (Homo sapiens): IC50 is 500 to 3000 nM
